biological target: CHO-CHOP luciferase reporter, UPR activation, luminescence; assay: CHOP reporter induction, apoptotic UPR branch – CHO-CHOP cells, luciferase luminescence, confirmation (AID 489024);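 further: compounds added alone to reporter cells with no tunicamycin stress co-treatment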
Activity calls are given as the source filed them.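 How the source made its calls: active means compounds whose mean EC50, the dose giving half the maximal reporter activation, is at or below a set limit; inactive means the rest.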
Pick one: T (active), F (inactive)

As a guide, the following entries are already answered.
COc1cc(/C=C(/C(=O)c2cccs2)c2nc3ccccc3[nH]2)cc(OC)c1O T
CCc1ccccc1NC(=S)N=Nc1c(O)n(C)c2ccc(S(=O)(=O)N3CCOCC3)cc12 F
COc1cc(/C=C2\COC/C(=C\c3ccc(O)c(OC)c3)C2=O)ccc1O T

Could you check what this test reported for CCOC(=O)/C(=C\c1ccccc1)C(=O)c1cc(C(C)=O)c(Nc2ccccc2)s1 ?
T

Queued: O=S(=O)(CCSc1nc2ccccc2s1)c1nc2ccccc2s1
T

Queued: S=C1SCN(Cc2ccccn2)CN1Cc1ccco1
F

* * *

target: CHO-CHOP luciferase reporter, UPR activation, luminescence; assay: CHOP reporter induction, apoptotic UPR branch – CHO-CHOP cells, luciferase luminescence, confirmation (AID 489024);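 further: compounds added alone to reporter cells with no tunicamycin stress co-treatment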
Calls of active or inactive are those of the source.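 How the source made its calls: active means compounds whose mean EC50, the dose giving half the maximal reporter activation, is at or below a set limit; inactive means the rest.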
Pick one: true for active, false for inactive

As a guide, the following entries are already answered.
COMPOUND	TARGET OF ASSAY	GROUP
CCOC(=O)C(=Cc1ccc(-n2cncn2)cc1)C(=O)OCC	CHO-CHOP luciferase reporter, UPR activation, luminescence	true
Cn1c2ccccc2c2cc(/C=N/NC(=O)c3cc(O)ccc3O)ccc21	CHO-CHOP luciferase reporter, UPR activation, luminescence	true
CCOc1ccc(N2C(=O)/C(=C\c3cccs3)C(=O)NC2=S)cc1	CHO-CHOP luciferase reporter, UPR activation, luminescence	true
O=C(CCN1C(=O)C2C3C=CC(C4CC34)C2C1=O)Oc1cccc2cccnc12 (configuration not stated)	CHO-CHOP luciferase reporter, UPR activation, luminescence	true
CCOc1ccc(N2C(=O)CC(N(O)c3ccccc3)C2=O)cc1 (configuration not stated)	CHO-CHOP luciferase reporter, UPR activation, luminescence	true

Could you check what this test reported for COc1ccccc1-c1cc(C(F)(F)F)nc(S(=O)(=O)CCCC(=O)N2CCCCC2C)n1 (configuration not stated) ?
true

Queued: O=C(CCl)Nc1cc(S(=O)(=O)N2CCCCCC2)ccc1Cl
false

Queued: CC(=O)c1cccc(NC(=O)CSc2ncc(C(=O)Nc3ccccc3)c(=O)n2C)c1
true

Queued: Cc1cccc(-n2ncc(Cl)c(Cl)c2=O)c1
true

Queued: Cc1cccc(Nc2nc3c(S(=O)(=O)c4ccccc4)nnn3c3ccccc23)c1C
false

Queued: COc1ccc(C2c3ccc4ccccc4c3Oc3ncn(CCCN(C)C)c(=N)c32)cc1 (configuration not stated)
true

Queued: COc1ccc(CCn2c(C)cc(C(=O)CCl)c2C)cc1OC
false

* * *

target: CHO-CHOP luciferase reporter, UPR activation, luminescence; assay: CHOP reporter induction, apoptotic UPR branch – CHO-CHOP cells, luciferase luminescence, confirmation (AID 489024);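 active means compounds whose mean EC50, the dose giving half the maximal reporter activation, is at or below a set limit; inactive means the rest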;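 further: compounds added alone to reporter cells with no tunicamycin stress co-treatment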
Pick one: active, inactive

MOLECULE	GROUP
Cc1[nH]c2ccccc2c1CN1CCC(Cc2ccccc2)CC1	active
Cc1ccc2cccc(NS(=O)(=O)c3ccccc3)c2n1	active
COc1cccc(N=Nc2ccc3cccnc3c2O)c1	active

Could you check what this test reported for O=C(NCc1ccccc1Br)c1cccc2c1C(=O)c1ccc(-c3ccc(OC(F)(F)F)cc3)cc1S2(=O)=O ?
active

Queued: Cc1ccc2c(C(=O)CCl)c(C)[nH]c2c1
active

Queued: O=C(Nc1nc(-c2ccccn2)cs1)c1ccc(Cl)s1
active

* * *

biological target: CHO-CHOP luciferase reporter, UPR activation, luminescence; experiment: CHOP reporter induction, apoptotic UPR branch – CHO-CHOP cells, luciferase luminescence, confirmation (AID 489024);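 further: compounds added alone to reporter cells with no tunicamycin stress co-treatment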
The source made the active and inactive calls.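 How the source made its calls: active means compounds whose mean EC50, the dose giving half the maximal reporter activation, is at or below a set limit; inactive means the rest.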
Pick one: active, inactive

As a guide, the following entries are already answered.
O=C(Nc1ccc(O)c2c(=O)cc(-c3cccc(Cl)c3)oc12)c1ccccc1Cl inactive
C/C(=N\NC(=O)COc1ccccc1-c1ccccc1)c1ccccn1 active
CN1CSC(=S)N(C)C1 inactive
CC1=C(/C=C/C(C)=C/C=C/C(C)=C/C(=O)Nc2ccc(O)cc2)C(C)(C)CCC1 active
Cc1cc(C)cc(NC(=O)/C(C#N)=C/c2cn(CC(=O)NCc3ccco3)c3ccccc23)c1 active

Could you check what this test reported for CCc1cc2c(=O)c(-c3cnn(-c4ccccc4)c3)c(C)oc2cc1OCC(=O)Nc1cccc(C)c1 ?
active

Queued: COc1ccc(N2CCN(Cc3cc(=O)oc4cc(-c5ccccc5)c(O)cc34)CC2)cc1
inactive

Queued: CCOC(=O)C(=Cc1ccc(OCc2ccc([N+](=O)[O-])cc2)c(OC)c1)C(=O)OCC
active

Queued: CCOC(=O)CSc1cccc2cccnc12
active

Queued: Cc1c(C#N)c(NC(=O)CCl)n(Cc2ccccc2)c1C
active

* * *

molecular target: CHO-CHOP luciferase reporter, UPR activation, luminescence; experiment: CHOP reporter induction, apoptotic UPR branch – CHO-CHOP cells, luciferase luminescence, confirmation (AID 489024);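 further: compounds added alone to reporter cells with no tunicamycin stress co-treatment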
Activity calls are given as the source filed them.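 The calls were made as follows: active = compounds whose mean EC50, the dose giving half the maximal reporter activation, is at or below a set limit; inactive = the rest.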
Pick one: 1 = active, -1 = inactive

Could you check what this test reported for COc1ccc(N=c2oc3c(OC)cccc3cc2C(=O)NCc2ccco2)c(OC)c1 ?
-1

Queued: COc1cc(SC#N)ccc1N=Cc1c(C)[nH]n(-c2ccc(Cl)cc2)c1=O
1

Queued: COc1c(Cl)cc(Cl)cc1/C=C/C(=O)c1ccc(NC(=O)c2cccs2)cc1
1

Queued: CC(C)N=c1scc(-c2cccs2)n1/N=C/c1ccc(O)c(O)c1O
1

Queued: CC1=NN(c2cccc(C(=O)O)c2)C(=O)/C1=C\C=C/c1ccccc1
1

Queued: O=C(Cn1ncc(Cl)c(Cl)c1=O)c1ccc2c(c1)OCCO2
1

Queued: CCc1ccc(NC(=O)C(CC)Sc2nc3cc4c(cc3c(=O)n2Cc2ccco2)OCO4)cc1 (configuration not stated)
1

Queued: CCOC(=O)N1CCN(Cc2cc(Cl)c3cccnc3c2O)CC1
-1

Queued: C/C(=N\NC(=O)c1cccc(Br)c1)c1ccccn1
1

Queued: O=C(CN(c1cccc(C(F)(F)F)c1)S(=O)(=O)c1ccc(Cl)c([N+](=O)[O-])c1)NCc1ccc(F)cc1
1

* * *

molecular target: CHO-CHOP luciferase reporter, UPR activation, luminescence; assay: CHOP reporter induction, apoptotic UPR branch – CHO-CHOP cells, luciferase luminescence, confirmation (AID 489024);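 further: compounds added alone to reporter cells with no tunicamycin stress co-treatment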
Calls of active or inactive are those of the source.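 Rule for the calls: active = compounds whose mean EC50, the dose giving half the maximal reporter activation, is at or below a set limit; inactive = the rest.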
Pick one: YES = active, NO = inactive

As a guide, the following entries are already answered.
MOLECULE	GROUP
CCCCC1CCC(C(=O)N(CCCC)c2c(N)n(CCCC)c(=O)[nH]c2=O)CC1 (stereo unspecified)	NO
Cc1cccc(CS(=O)(=O)c2ncc(Cl)c(C(=O)Nc3ccc(F)cc3)n2)c1	YES
O=C(/C=C/Sc1ccccc1)c1ccccc1	YES
COc1ccc(-c2cc(C(F)F)n3ncc(C(=O)n4ccnc4C)c3n2)cc1	YES
COC(=O)c1c(NC(=O)CC2Nc3ccccc3NC2=O)sc(C)c1C (stereo unspecified)	NO

Could you check what this test reported for COc1ccccc1NC(=O)c1cnc(SCC(=O)NCC2CCCO2)n(C)c1=O (stereo unspecified) ?
YES

Queued: Nc1c(C(=O)Nc2ccc(S(=O)(=O)N3CCCC3)cc2)sc2nc3ccc(OC(F)(F)F)cc3cc12
NO

Queued: COc1ccc(-n2nc(C#N)c(Cl)cc2=O)cc1
YES

Queued: CCCn1c(CC)nc([N+](=O)[O-])c1S(=O)(=O)c1ccccc1
NO

Queued: COc1cc(/C=C/C(=O)c2ccc3c(c2)OCCO3)cc(Br)c1OCC(=O)N(C)C
YES

Queued: CCOc1ccc(NC(=S)NC(=O)/C=C/c2ccc(OC)c(OC)c2)c([N+](=O)[O-])c1
NO

Queued: O=C(N/N=C/c1ccccn1)c1cc(-c2ccc(Br)cc2)nc2ccccc12
YES

Queued: FC(F)(F)c1nnc2c(Sc3ccccc3)nc3ccc(Cl)cc3n12
YES

Queued: O=c1[nH]c(=S)n(C2CC2)c(O)c1C=Nc1cccc(C(F)(F)F)c1
NO

Queued: CN(c1ccccc1)S(=O)(=O)c1cccc(C(=O)NCCc2ccc(O)c(O)c2)c1
YES

Queued: CS(=O)(=O)c1nc(-c2ccccc2)cc(-c2ccccc2)c1C#N
YES

Queued: CCOc1cc(/C=N/NC(N)=S)cc(Br)c1OCc1ccccc1C
NO

Queued: Cc1ccc(N2C(=O)NC(=O)/C(=C/C=C/c3ccco3)C2=O)cc1
YES

Queued: CCCN(CCC)C(=O)c1cc([N+](=O)[O-])cc2c1-c1ccc([N+](=O)[O-])cc1C2=C(C#N)C#N
YES

Queued: Oc1c(C(c2ccccc2Cl)N2CCCC2)ccc2cccnc12 (stereo unspecified)
YES

Queued: COC(=O)[C@@H]1[C@@H](C#N)C2(c3ccccc3-c3ccccc32)N(c2ccc(Cl)cc2)N1C#N
YES

* * *

target: CHO-CHOP luciferase reporter, UPR activation, luminescence; assay: CHOP reporter induction, apoptotic UPR branch – CHO-CHOP cells, luciferase luminescence, confirmation (AID 489024);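 further: compounds added alone to reporter cells with no tunicamycin stress co-treatment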
Activity calls are given as the source filed them.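 Rule for the calls: active = compounds whose mean EC50, the dose giving half the maximal reporter activation, is at or below a set limit; inactive = the rest.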
REPORTED ENDPOINT: EC50

Worked set:
MOLECULE	EC50
CC1=NOC(=O)/C1=C\c1ccc(-c2cccc(Cl)c2)o1	13.1 µM
Oc1c(C(Nc2ccccn2)c2ccccn2)ccc2cccnc12 (stereo unspecified)	12.3 µM
Cc1ccc2[nH]cc(C(=O)CCl)c2c1	7.64 µM
O=C(CSc1ccc2ccccc2c1)NCCc1ccc(O)c(O)c1	8.44 µM
Cc1cc(N2CCN(c3ccc([N+](=O)[O-])c4cccnc34)CC2)c2ccccc2n1	inactive

What measured EC50 goes with COc1ccc(/C=C/C(=O)Oc2ccc(C)cc2)cc1 ?
inactive

Queued: CC(=O)Nc1ccc(N=Cc2c(O)c(C(=O)Nc3ccccc3)cc3ccccc23)cc1
inactive

Queued: C[C@@H]1C[C@@H]2O[C@H]2/C=C\C=C\C(=O)Cc2c(Cl)c(O)cc(O)c2C(=O)O1
5.32 µM

Queued: CC(C)(C)C(=O)N1CCN(c2ccc(NC(=O)c3ccc([N+](=O)[O-])o3)cc2)CC1
0.75 µM

Queued: C=CCSC(=C(C#N)C#N)c1cc2c([nH]1)CCCC2
> 80 µM (inactive)

Queued: CC1CCN(Cc2c(C(=O)N/N=C/c3ccc(C(C)(C)C)cc3)nnn2-c2nonc2N)CC1
8.4 µM

These data points were gathered from PubChem BioAssay AID489024.
